microsomal CLint at 1 uM overview
assay: Metabolic stability in mouse hepatic microsome; type: in vitro ADME; conditions: male, mouse, liver microsomes, pH 7.4; 0.5 mg protein/mL, 1 uM, 30 minutes, with NADPH; read-out: Hepatic Microsome CLh, int (Mouse) In the presence of NADPH
Positions of bridges follow the written chain, without caps; N, C: chain ends. Non-standard residues stand in square brackets, D forms with d. Residues, ends and D or L forms follow the SMILES beside them. ξ: configuration not given here. *: point of attachment. Bip = N[C@@H](Cc1ccc(-c2ccccc2)cc1)C(=O)O; NMeF = CN[C@@H](Cc1ccccc1)C(=O)O; NMeI = CC[C@H](C)[C@H](NC)C(=O)O; NMeL = CN[C@@H](CC(C)C)C(=O)O; NMeA = CN[C@@H](C)C(=O)O; Piperidide = C1CCN(*)CC1; ξC = NC(CS)C(=O)O; Sar = CNCC(=O)O; tBu = CC(C)(C)*
measurement_kind: microsomal CLint at 1 uM

[
  {
    "compound": "CC(C)C[C@H]1C(=O)N[C@@H](COC(C)(C)C)C(=O)N[C@H](C(=O)N2CCCCC2)CSCC(=O)N(C)[C@@H](Cc2ccccc2)C(=O)N(C)[C@@H](C)C(=O)N[C@@H](Cc2ccccc2)C(=O)N(C)[C@@H](CC(C)C)C(=O)N[C@@H]([C@@H](C)O)C(=O)N(C)CC(=O)N1C [Compound P-110] ({CH2CO}-[NMeF][NMeA]F[NMeL]T[Sar][NMeL]S(tBu)C-Piperidide; thioether N-9)",
    "result": "163 µL/min/mg"
  },
  {
    "compound": "CC(C)C[C@H]1C(=O)N[C@H](C(=O)N2CCCCC2)CSCC(=O)N(C)[C@@H](Cc2ccccc2)C(=O)N(C)[C@@H](C)C(=O)N[C@@H](Cc2ccccc2)C(=O)N(C)[C@@H](CC(C)C)C(=O)N[C@@H]([C@@H](C)O)C(=O)N(C)CC(=O)N1C [Compound P-105] ({CH2CO}-[NMeF][NMeA]F[NMeL]T[Sar][NMeL]C-Piperidide; thioether N-8)",
    "result": "278 µL/min/mg"
  },
  {
    "compound": "CC[C@H](C)[C@H]1C(=O)N[C@@H](Cc2ccc(-c3ccccc3)cc2)C(=O)N[C@H](C(=O)N2CCCCC2)CSCC(=O)N(C)[C@@H](CC(C)C)C(=O)N[C@@H]([C@@H](C)O)C(=O)N(C)CC(=O)N(C)[C@@H](CC(C)C)C(=O)N[C@@H](CO)C(=O)N1C [Compound P-104] ({CH2CO}-[NMeL]T[Sar][NMeL]S[NMeI][Bip]C-Piperidide; thioether N-8)",
    "result": "106 µL/min/mg"
  },
  {
    "compound": "CC[C@H](C)[C@H]1C(=O)NC(C(=O)N2CCCCC2)CSCC(=O)N(C)[C@@H](Cc2ccccc2)C(=O)N(C)[C@@H](C)C(=O)N(C)[C@@H](Cc2ccccc2)C(=O)N(C)[C@@H](CC(C)C)C(=O)N[C@@H]([C@@H](C)O)C(=O)N(C)CC(=O)N(C)[C@@H](CC(C)C)C(=O)N[C@@H](COC(C)(C)C)C(=O)N1C (some centres unmarked) [Compound P-112] ({CH2CO}-[NMeF][NMeA][NMeF][NMeL]T[Sar][NMeL]S(tBu)[NMeI][ξC]-Piperidide; thioether N-10)",
    "result": "30.4 µL/min/mg"
  },
  {
    "compound": "CC[C@H](C)[C@H]1C(=O)N[C@H](C(=O)N2CCCCC2)CSCC(=O)N(C)[C@@H](Cc2ccccc2)C(=O)N(C)[C@@H](CC(C)C)C(=O)N[C@@H]([C@@H](C)O)C(=O)N(C)CC(=O)N(C)[C@@H](CC(C)C)C(=O)N[C@@H](COC(C)(C)C)C(=O)N1C [Compound P-103] ({CH2CO}-[NMeF][NMeL]T[Sar][NMeL]S(tBu)[NMeI]C-Piperidide; thioether N-8)",
    "result": "63 µL/min/mg"
  }
]

---

experiment: Metabolic stability in human hepatic microsome; type: in vitro ADME; conditions: microsomes, pH 7.4; human hepatic microsome, NADPH(+); read-out: CL NADPH(+)
Positions of bridges follow the written chain, without caps; N, C: chain ends. Non-standard residues stand in square brackets, D forms with d. Residues, ends and D or L forms follow the SMILES beside them. *: point of attachment. NMeF = CN[C@@H](Cc1ccccc1)C(=O)O; 3Pal = N[C@@H](Cc1cccnc1)C(=O)O; NMeL = CN[C@@H](CC(C)C)C(=O)O; NMeA = CN[C@@H](C)C(=O)O; Piperidide = C1CCN(*)CC1; Sar = CNCC(=O)O; tBu = CC(C)(C)*

[
  {
    "molecule": "CC(C)C[C@H]1C(=O)N(C)[C@@H](CC(C)C)C(=O)N[C@H](C(=O)N(C)[C@@H](Cc2ccccc2)C(=O)N[C@@H](C)C(=O)N2CCCCC2)CC(=O)N[C@H](C(C)C)C(=O)N(C)[C@@H](C)C(=O)N(C)[C@@H](Cc2ccccc2)C(=O)N(C)[C@@H](CC(C)C)C(=O)N[C@@H]([C@@H](C)O)C(=O)N(C)CC(=O)N[C@@H](C(C)C)C(=O)N1C [DP-123] ([dV][NMeA][NMeF][NMeL]T[Sar]V[NMeL][NMeL]D[NMeF]A-Piperidide; lactam N-10)",
    "microsomal CLint at 1 uM / µL/min/mg": 21
  },
  {
    "molecule": "CC(C)C[C@H]1C(=O)N[C@@H](COC(C)(C)C)C(=O)N[C@H](C(=O)N2CCCCC2)CC(=O)N[C@H](C)C(=O)N(C)[C@@H](Cc2ccccc2)C(=O)N(C)[C@@H](CC(C)C)C(=O)N[C@@H]([C@@H](C)O)C(=O)N(C)CC(=O)N1C [DP-528] ([dA][NMeF][NMeL]T[Sar][NMeL]S(tBu)D-Piperidide; lactam N-8)",
    "microsomal CLint at 1 uM / µL/min/mg": 55
  },
  {
    "molecule": "CC(C)C[C@H]1C(=O)N(C)[C@@H](CC(C)C)C(=O)N[C@H](C(=O)N(C)[C@@H](Cc2ccccc2)C(=O)N[C@@H](C)C(=O)N2CCCCC2)CC(=O)N[C@H](C(C)C)C(=O)N(C)[C@@H](C)C(=O)N(C)[C@@H](Cc2ccccc2)C(=O)N(C)[C@@H](CC(C)C)C(=O)N[C@@H](Cc2cccnc2)C(=O)N(C)CC(=O)N[C@@H](C)C(=O)N1C [DP-591] ([dV][NMeA][NMeF][NMeL][3Pal][Sar]A[NMeL][NMeL]D[NMeF]A-Piperidide; lactam N-10)",
    "microsomal CLint at 1 uM / µL/min/mg": 15
  }
]

---

assay: PAMPA (parallel artificial membrane permeability assay); format: in vitro ADME; settings: PAMPA; membrane permeation rate (Pe); 50 mM MOPSO buffer pH 6.5 with 5.0% glycocholic acid, 37° C., 18 hours; read-out: iPAMPA Pe
Starred links: 1 amine or outer side, 2 acyl side, 3 side chain; linkers in the order of their positions; H or OH if unused. Positions of bridges follow the written chain, without caps; N, C: chain ends. Non-standard residues stand in square brackets, D forms with d. Residues, ends and D or L forms follow the SMILES beside them. *: point of attachment. NMePhe(3-Cl) = CN[C@@H](Cc1cccc(Cl)c1)C(=O)O; hhPhe = N[C@@H](CCCc1ccccc1)C(=O)O; NMeF = CN[C@@H](Cc1ccccc1)C(=O)O; NMeβAla = CN(CCC(=O)[*:2])[*:1]; NMeL = CN[C@@H](CC(C)C)C(=O)O; NMeV = CN[C@H](C(=O)O)C(C)C; NMeA = CN[C@@H](C)C(=O)O; Piperidide = C1CCN(*)CC1; dNMeA = CN[C@H](C)C(=O)O; Sar = CNCC(=O)O
Lab note - cut at 20 ×10⁻⁶ cm/s for Papp at 18 hours, 50 µM: class 1 if strictly below, class 0 if not.

[
  {
    "compound": "CC(C)C[C@H]1C(=O)N[C@H](C(=O)N(C)[C@@H](Cc2ccccc2)C(=O)N[C@@H](C)C(=O)N2CCCCC2)CC(=O)N(C)CCC(=O)N(C)[C@@H](C)C(=O)N[C@@H](C(C)C)C(=O)N(C)[C@@H](C(C)C)C(=O)N(C)[C@@H](Cc2ccccc2)C(=O)N(C)CC(=O)N[C@@H]([C@@H](C)O)C(=O)N(C)[C@@H](C)C(=O)N1C [DP-449] ([NMeβAla][NMeA]V[NMeV][NMeF][Sar]T[NMeA][NMeL]D[NMeF]A-Piperidide; lactam N-10)",
    "classification": "class 1"
  },
  {
    "compound": "CC(C)C[C@H]1C(=O)N(C)[C@@H](C(C)C)C(=O)N(C)[C@@H](C)C(=O)N[C@@H](CCCc2ccccc2)C(=O)N(C)[C@@H](C)C(=O)N[C@H](C(=O)N2CCCCC2)CC(=O)N(C)[C@@H](C)C(=O)N[C@@H]([C@@H](C)O)C(=O)N(C)[C@@H](C)C(=O)N[C@@H](C)C(=O)N(C)[C@@H](Cc2ccccc2)C(=O)N1C [DP-735] ([NMeA]T[NMeA]A[NMeF][NMeL][NMeV][NMeA][hhPhe][NMeA]D-Piperidide; lactam N-11)",
    "classification": "class 0"
  },
  {
    "compound": "CC[C@H](C)[C@H](NC(=O)[C@H](C)N(C)C(=O)[C@@H]1CCCN1C(=O)[C@@H](NC(=O)[C@@H]1CC(=O)N(C)[C@H](C)C(=O)N(C)[C@@H](CC(C)C)C(=O)N(C)[C@@H](Cc2ccccc2)C(=O)N[C@@H](CC(C)C)C(=O)N(C)[C@@H](Cc2cccc(Cl)c2)C(=O)N[C@@H]([C@@H](C)O)C(=O)N(C)[C@@H](Cc2ccccc2)C(=O)N[C@@H](CC(C)C)C(=O)N1)[C@@H](C)CC)C(=O)N1CCCCC1 [DP-942] ([dNMeA][NMeL][NMeF]L[NMePhe(3-Cl)]T[NMeF]LDIP[NMeA]I-Piperidide; lactam N-9)",
    "classification": "class 1"
  },
  {
    "compound": "CC(C)C[C@@H]1NC(=O)[C@H](Cc2ccccc2)N(C)C(=O)[C@H](Cc2ccccc2)N(C)C(=O)[C@H](CC(C)C)NC(=O)[C@H](C)N(C)C(=O)[C@H]([C@@H](C)O)NC(=O)[C@H](C)N(C)C(=O)C[C@@H](C(=O)N2CCCCC2)NC(=O)[C@H](CC(C)C)N(C)C1=O [DP-125] ([NMeA]T[NMeA]L[NMeF][NMeF]L[NMeL]D-Piperidide; lactam N-9)",
    "classification": "class 0"
  },
  {
    "compound": "CC[C@H](C)[C@@H]1NC(=O)[C@H](Cc2ccccc2)NC(=O)[C@H](CC(C)C)NC(=O)[C@H](CC(C)C)NC(=O)[C@H](C)NC(=O)C[C@@H](C(=O)N2CCCCC2)NC(=O)[C@H](CC(C)C)N(C)C(=O)[C@H](Cc2ccccc2)NC(=O)[C@H](CC(C)C)NC(=O)CNC(=O)[C@H]([C@@H](C)O)NC1=O [DP-513] (ALLFITGLF[NMeL]D-Piperidide; lactam N-11)",
    "classification": "class 0"
  }
]
